# experimentalDetails: chemical genetic growth profiling, strain panel (AID 1159580);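 further: tested at 20 µM; growth read once vehicle control cultures reached saturation at 30 °C; 1 = growth at the plate median or of vehicle wells; lower values mean less growth of the strain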
# runParameters: S. cerevisiae strains, growth OD, strain wild type, active compounds read low
Hit rate of the full screen: of about 5,500 compounds, about 2,000 (36%) were called active. Another 18% or so got no clear call; they are omitted. The list shows a part of the results.
readoutKind: normalized growth
One number for each entry.

molecule: O=[N+]([O-])c1cccnc1Oc1ccc(Cl)cc1
recordedNumber: 0.917

molecule: CSc1cc(C(F)(F)F)cc(SC)c1SC
recordedNumber: 0.925

molecule: Cc1ccc(OS(=O)(=O)c2ccc(Cl)cc2)c([N+](=O)[O-])n1
recordedNumber: 0.949

molecule: O=C(CCCN1CCC(O)(c2ccc(Cl)cc2)CC1)c1ccc(F)cc1
recordedNumber: 0.833

molecule: NS(=O)(=O)c1cc2c(cc1C(F)(F)F)NC(Cc1ccccc1)NS2(=O)=O (stereo not given)
recordedNumber: 1

Can you give me normalized growth for all of these, one by one?
1. COc1cc(O)c2c(=O)cc(-c3ccc(O)cc3)oc2c1
2. COC(=O)c1cccnc1Sc1ccc(C)cc1
3. O=C(CCCN1CCC2(CC1)C(=O)NCN2c1ccccc1)c1ccc(F)cc1
4. COc1ccccc1N1CCN(C(=O)Nc2cc(Cl)cc(Cl)c2)CC1
5. C[C@H]1[C@H](C)CC[C@]2(C(=O)O)CC[C@]3(C)C(=CCC4[C@@]5(C)C[C@@H](O)[C@H](O)[C@@](C)(CO)C5[C@H](O)C[C@]43C)[C@H]12 (stereo not given in full)
6. COc1nc(NC(C)C)nc(NC(C)C)n1
7. CNC[C@H](O)c1cccc(O)c1

[1.01, 0.965, 0.99, 0.922, 0.961, 1, 1.01]

Can you give me normalized growth for all of these, one by one?
1. NC[C@@H]1O[C@H](O[C@@H]2[C@@H](CO)OC(O[C@@H]3[C@@H](O)[C@H](N)C[C@H](N)[C@H]3O[C@H]3O[C@H](CO)[C@@H](O)[C@H](O)[C@H]3N)[C@@H]2O)[C@H](N)[C@@H](O)[C@@H]1O (stereo not given in full)
2. CC(=O)[C@@]1(O)CCC2C3C=C(Cl)C4=CC(=O)[C@@H]5CC5[C@]4(C)C3CC[C@@]21C (stereo not given in full)
3. COc1cc(C)c2c(=O)c3c(O)cc(OC)cc3oc2c1
4. NC(=O)c1ccccc1O
5. COc1ccccc1N1CCN(CCCNc2cc(=O)n(C)c(=O)n2C)CC1
6. CC(=O)N1CCN(c2ccc(OCC3CO[C@](Cn4ccnc4)(c4ccc(Cl)cc4Cl)O3)cc2)CC1 (stereo not given in full)
7. CC(=O)N1CCCC1C(=O)O (stereo not given)

0.988
1
1.01
1.01
0.997
0.0668
1

---

# experimentalDetails: chemical genetic growth profiling, strain panel (AID 1159580)
# runParameters: S. cerevisiae deletion strains, growth OD, locus YLR085C, strain ARP6
Hit rate of the full screen: of about 5,500 compounds, about 2,000 (36%) were called active. Not shown: some 18% with an inconclusive outcome. Rule as the data show it: active = normalized growth mostly below about 0.91 (no sharp cut-off); inconclusive = no clear call, values can overlap the other calls; inactive = mostly above about 0.92. This is one part of the list.
# output must be one of active, inactive

These recorded examples may help you get a feel for the data.
compound: Cc1ccc(Sc2ncccc2C(=O)NCC(=O)O)cc1
group: inactive
--
compound: O=C1c2ccccc2C(=O)N1CN1CCC(O)(c2ccc(Cl)cc2)CC1
group: inactive
--
compound: O=[N+]([O-])c1cccnc1Oc1ccc(Cl)cc1
group: inactive
--
compound: CC(=O)CS(=O)(=O)c1ccc(Cl)cc1
group: inactive
--
compound: c1ccc(-c2ncc3ccccn23)cc1
group: inactive

Hi, do you know how "CCn1nc(C)cc1C(=O)O" came out in this test? active

Hi, do you know how "O=C(O)CCc1nc(-c2ccccc2)c(-c2ccccc2)o1" came out in this test? inactive

Hi, do you know how "CN(C)/C=C1\CSc2ccc(F)cc2C1=O" came out in this test? active

---

# experimentalDetails: chemical genetic growth profiling, strain panel (AID 1159580);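 further: tested at 20 µM; growth read once vehicle control cultures reached saturation at 30 °C; 1 = growth at the plate median or of vehicle wells; lower values mean less growth of the strain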
# runParameters: S. cerevisiae deletion strains, growth OD, locus YCL029C, strain bik1, active compounds read low
The campaign covered roughly 5,500 compounds. About 2,000 (36%) were called active. Another 18% or so got no clear call; they are omitted. Some of the results follow.
readoutKind: normalized growth

Check out these entries, answers already filled in.
compound: CCCc1nn(C)c2c(=O)[nH]c(-c3cc(S(=O)(=O)N4CCN(C)CC4)ccc3OCC)nc12
normalized growth: 0.993 (inactive)
--
compound: CC1(C)O[C@@H]2CC3C4C[C@H](F)C5=CC(=O)CC[C@]5(C)C4[C@@H](O)C[C@]3(C)[C@]2(C(=O)CO)O1 (stereo partly specified)
normalized growth: 1.01 (inactive)
--
compound: C[C@H]1O[C@@H](O[C@H]2[C@@H](O)C[C@H](O[C@H]3[C@@H](O)C[C@H](O[C@H]4CC[C@]5(C)C6CC[C@]7(C)[C@@H](C8=CC(=O)OC8)CC[C@]7(O)C6CC[C@@H]5C4)O[C@@H]3C)O[C@@H]2C)C[C@H](O)[C@@H]1O (stereo partly specified)
normalized growth: 0.976 (inactive)
--
compound: C[C@@H]1CCC2[C@](C)(CO)[C@@H](O)CC[C@]2(C)[C@@]12CC[C@@](CO)(CCO)O2 (stereo partly specified)
normalized growth: 0.986 (inactive)
--
compound: CCC(=O)OCC(=O)C1(OC(=O)CC)C(C)CC2C3CCC4=CC(=O)C=CC4(C)C3(Cl)C(O)CC21C (stereo unspecified)
normalized growth: 0.993 (inactive)
--
compound: COc1ccccc1N1CCN(CCCNc2cc(=O)n(C)c(=O)n2C)CC1
normalized growth: 0.984 (inactive)
--
compound: CCCCC(=O)O[C@]1(C(=O)CO)[C@@H](C)CC2C3CCC4=CC(=O)C=C[C@]4(C)[C@@]3(F)C(O)C[C@@]21C (stereo partly specified)
normalized growth: 0.981 (inactive)
--
compound: CCc1ccc2c(O)c3c(cc2c1C(=O)OC)C(=O)c1c(O)ccc(O)c1C3=O
normalized growth: 0.975 (inactive)

Can you give me normalized growth for all of these, one by one?
1. C[C@@H]1O[C@@H](O[C@H]2CC[C@]3(C=O)C4CC[C@]5(C)[C@@H](C6=CC(=O)OC6)CC[C@]5(O)C4CC[C@]3(O)C2)[C@H](O)[C@H](O)[C@H]1O (stereo partly specified)
2. NCC(O)CC(=O)O (stereo unspecified)
3. Cc1c(OCC(F)(F)F)ccnc1CS(=O)c1nc2ccccc2[nH]1 (stereo unspecified)

1. 0.985 (inactive)
2. 0.992 (inactive)
3. 0.971 (inactive)

---

# experimentalDetails: chemical genetic growth profiling, strain panel (AID 1159580);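 further: tested at 20 µM; growth read once vehicle control cultures reached saturation at 30 °C; 1 = growth at the plate median or of vehicle wells; lower values mean less growth of the strain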
# runParameters: S. cerevisiae deletion strains, growth OD, locus YLR342W, strain FKS1, active compounds read low
The campaign covered roughly 5,500 compounds. About 2,000 (36%) were called active. Another 18% or so got no clear call; they are omitted. This is one part of the list.
Answer each item with its documented normalized growth.
Give bare numbers.

Check out these entries, answers already filled in.
compound: CC(=O)O[C@@H]1c2c(ccc3ccc(=O)oc23)OC(C)(C)[C@@H]1OC(=O)CC(C)C
readoutKind: normalized growth
recordedNumber: 0.98
//
compound: COc1cc2c(cc1OC)-c1c(oc3cc(O)cc(O)c3c1=O)CO2
readoutKind: normalized growth
recordedNumber: 1.02
//
compound: COc1cc(O)c2c(=O)cc(-c3ccc(OC)c(-c4c(O)cc(O)c5c(=O)cc(-c6ccc(O)cc6)oc45)c3)oc2c1
readoutKind: normalized growth
recordedNumber: 0.996
//
compound: CCCCC(=O)O[C@]1(C(=O)CO)[C@@H](C)CC2C3CCC4=CC(=O)C=C[C@]4(C)[C@@]3(F)C(O)C[C@@]21C (stereo partly specified)
readoutKind: normalized growth
recordedNumber: 0.973
//
compound: C=CCSCC=C
readoutKind: normalized growth
recordedNumber: 0.983

// normalized growth lookup, key: "COc1nc(NC(C)C)nc(NC(C)C)n1" 1.01

---

# experimentalDetails: chemical genetic growth profiling, strain panel (AID 1159580);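 further: tested at 20 µM; growth read once vehicle control cultures reached saturation at 30 °C; 1 = growth at the plate median or of vehicle wells; lower values mean less growth of the strain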
# runParameters: S. cerevisiae deletion strains, growth OD, locus YOR144C, strain elg1, active compounds read low
Screen size: about 5,500 compounds; about 2,000 (36%) were called active. Another 18% or so got no clear call; they are omitted. This is one part of the list.
readoutKind: normalized growth
Numbers only.

Check out these entries, answers already filled in.
compound: CCC(=O)OCC(=O)C1(OC(=O)CC)C(C)CC2C3CCC4=CC(=O)C=CC4(C)C3(Cl)C(O)CC21C (stereo not drawn)
readoutKind: normalized growth
recordedNumber: 0.991
//
compound: CC(C)Nc1nc(Cl)nc(NC(C)C)n1
readoutKind: normalized growth
recordedNumber: 1
//
compound: O=C(O)CN(CCN(CC(=O)O)CC(=O)O)CC(=O)O
readoutKind: normalized growth
recordedNumber: 0.976

Can you give me normalized growth for all of these, one by one?
1. CCC(=O)O[C@]1(C(=O)CCl)[C@@H](C)CC2C3CCC4=CC(=O)C=C[C@]4(C)[C@@]3(F)[C@@H](O)C[C@@]21C (stereo partly drawn)
2. C[C@]12CCC(=O)C=C1CCc1ccc(O)cc12
3. O=c1c(O)cccc2c(C3Oc4cc(O)cc(O)c4CC3O)cc(O)c(O)c12 (stereo not drawn)
4. NC[C@H]1O[C@H](OC2[C@@H](N)C[C@@H](N)[C@H](O[C@H]3O[C@H](CO)[C@@H](O)[C@H](N)[C@H]3O)[C@H]2O)[C@H](O)[C@@H](O)[C@@H]1O (stereo partly drawn)
5. C[C@@H](CO)NC(=O)C1C=C2c3cccc4[nH]cc(c34)C[C@H]2N(C)C1 (stereo partly drawn)

1: 0.997; 2: 0.985; 3: 0.198; 4: 0.987; 5: 0.989
